Hey, just so you know, these numbers are from patent US20230310428A1.

Molecular target: various mutants of kinase EGFR (BaF3 cell lines stably transfected with kinase) (Homo sapiens, UniProt P00533, C797S/L858R/T790M)
Construct: expressed in transfected cells; host or cells: BaF3
Sequence (P00533 25-1210 T790M/C797S/L858R): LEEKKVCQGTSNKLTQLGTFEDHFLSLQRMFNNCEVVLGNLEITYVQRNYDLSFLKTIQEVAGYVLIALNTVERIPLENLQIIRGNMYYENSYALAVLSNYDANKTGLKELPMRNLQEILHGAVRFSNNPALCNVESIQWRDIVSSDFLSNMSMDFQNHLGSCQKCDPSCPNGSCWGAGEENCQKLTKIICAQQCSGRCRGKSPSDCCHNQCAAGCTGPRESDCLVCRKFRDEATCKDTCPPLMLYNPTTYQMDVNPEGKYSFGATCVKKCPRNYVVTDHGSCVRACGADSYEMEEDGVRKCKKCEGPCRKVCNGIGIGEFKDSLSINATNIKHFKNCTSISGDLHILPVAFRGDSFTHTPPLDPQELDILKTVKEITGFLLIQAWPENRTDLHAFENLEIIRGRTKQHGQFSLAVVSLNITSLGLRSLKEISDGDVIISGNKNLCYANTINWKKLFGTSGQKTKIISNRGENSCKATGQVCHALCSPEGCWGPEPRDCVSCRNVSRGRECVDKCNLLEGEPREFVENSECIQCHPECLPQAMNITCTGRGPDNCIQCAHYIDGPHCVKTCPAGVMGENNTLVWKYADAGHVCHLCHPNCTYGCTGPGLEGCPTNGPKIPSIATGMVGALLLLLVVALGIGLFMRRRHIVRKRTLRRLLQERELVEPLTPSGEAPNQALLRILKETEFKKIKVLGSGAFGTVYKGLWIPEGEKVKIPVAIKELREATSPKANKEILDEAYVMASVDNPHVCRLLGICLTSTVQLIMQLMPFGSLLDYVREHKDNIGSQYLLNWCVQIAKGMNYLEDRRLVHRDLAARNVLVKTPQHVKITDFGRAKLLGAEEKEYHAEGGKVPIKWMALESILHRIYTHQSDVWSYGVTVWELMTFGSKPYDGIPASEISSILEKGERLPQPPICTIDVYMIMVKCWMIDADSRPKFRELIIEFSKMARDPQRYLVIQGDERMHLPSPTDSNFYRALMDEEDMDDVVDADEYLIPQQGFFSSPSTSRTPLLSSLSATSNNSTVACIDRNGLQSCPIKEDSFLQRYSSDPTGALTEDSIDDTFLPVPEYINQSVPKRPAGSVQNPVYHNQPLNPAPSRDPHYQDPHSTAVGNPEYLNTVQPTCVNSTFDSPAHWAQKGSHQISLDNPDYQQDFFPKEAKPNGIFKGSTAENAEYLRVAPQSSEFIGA
Assay: Growth inhibitory activity of compounds on BaF3 cell lines stably transfected with kinase (MTS, 48 h)
Format: cell-based
Details: BaF3 cell line stably transfected with EGFR L858R/T790M/C797S, read-out: L858R/T790M/ C797S growth inhibitory activity IC50
PROPERTY MEASURED: IC50

For orientation, consider the following solved cases.
# TEST SMILES, IC50
measured = [
    ("COc1cc(N2CCC(N3CCN(C)CC3)CC2)c(Cc2ccccc2)cc1Nc1nc(Nc2ccc3nccnc3c2N(C)S(C)(=O)=O)c2sccc2n1", "0.5 to 2.5 µM"),
    ("CN1CCN(C2CCN(c3ccc(Nc4nc(Nc5ccc6nccnc6c5N(C)S(C)(=O)=O)c5occc5n4)c(OC(F)(F)F)c3)CC2)CC1", "0.5 to 2.5 µM"),
]

-- ask What measured IC50 goes with CCc1cc(Nc2nc(Nc3ccc4nccnc4c3N(C)S(C)(=O)=O)c3occc3n2)c(OC(F)(F)F)cc1N1CCC(N2CCN(C)CC2)CC1 ?
-- reply 0.05 to 0.5 µM

-- ask What do we get for CC(C)n1cc(Nc2ncc(Br)c(Nc3ccc4nccnc4c3N(C)S(C)(=O)=O)n2)cn1 ?
-- reply ≤ 0.05 µM
